The entries below are paired with their reported melting point.

Worked examples, 5 compounds total:
# melting point of O=C(Nc1nc(-c2ccco2)c(C(=O)C2CCOCC2)s1)c1ccccc1 = 221 to 222 °C

# melting point of COc1ccccc1C(=O)Nc1nc(-c2ccco2)c(C(=O)C2CCOCC2)s1 = 181 to 184 °C

# melting point of CCCC(=O)c1sc(NC(=O)c2ccncc2)nc1-c1ccco1 = 191 to 194 °C

# melting point of O=C(c1ccccn1)c1sc(NC(=O)C2CCN(Cc3ccncc3)CC2)nc1-c1ccco1 = 240 to 241 °C

# melting point of Cc1ccc(C(=O)c2sc(NC(=O)c3ccco3)nc2-c2ccco2)cn1 = 197 to 209 °C

More entries:
# melting point of CC(C)(O)CN1CCN(CC(=O)Nc2nc(-c3ccco3)c(C(=O)C3CCOCC3)s2)CC1 = 106 to 108 °C

# melting point of O=C(Nc1nc(-c2ccco2)c(C(=O)C2CCOCC2)s1)c1ccc(Cl)cc1 = 204 to 206 °C

# melting point of O=C(Nc1nc(-c2ccco2)c(C(=O)C2CCOCC2)s1)c1ccc(CN2CCCCC2)cc1 = 160 to 162 °C

# melting point of O=C(Nc1nc(-c2ccco2)c(C(=O)C2CCOCC2)s1)C1CC1 = 182 to 183 °C

# melting point of O=C(Nc1nc(-c2ccco2)c(C(=O)c2ccccn2)s1)c1cc[nH]c(=O)c1 = 170 to 180 °C (dec.)

# melting point of O=C(Nc1nc(-c2ccco2)c(C(=O)C2CCCC2)s1)c1ccncc1 = 168 to 181 °C

# melting point of COCC(=O)c1sc(NC(=O)c2ccc(F)cc2)nc1-c1ccco1 = 166 to 167 °C

----------
ENDPOINT: melting point

Worked examples, 3 molecules total:
# melting point of COCC(=O)Nc1nc(-c2ccco2)c(C(=O)C2CCOCC2)s1 = 148 to 149 °C

# melting point of O=C(Nc1nc(-c2ccco2)c(C(=O)C2CCOCC2)s1)c1ccc(N2CCOCC2)nc1 = 166 to 170 °C

# melting point of O=C(CN1CCC(N2CCCCC2)CC1)Nc1nc(-c2ccco2)c(C(=O)C2CCOCC2)s1 = 177 to 179 °C

More entries:
# melting point of O=C(Nc1nc(-c2ccco2)c(C(=O)c2ccc(N3CCOCC3)nc2)s1)c1ccncc1 = 195 to 220 °C

----------
The entries below are paired with their reported melting point.

# melting point of COc1cc(OC)cc(C(=O)Nc2nc(-c3ccco3)c(C(=O)C3CCOCC3)s2)c1 = 278 to 280 °C

# melting point of O=C(Nc1nc(-c2ccco2)c(C(=O)C2CCOCC2)s1)c1ccc(C(F)(F)F)nc1 = 217 to 222 °C

# melting point of O=C(Nc1nc(-c2ccco2)c(C(=O)C2CCOCC2)s1)c1ccoc1 = 236 to 238 °C

# melting point of Cn1ccc(C(=O)c2sc(NC(=O)c3ccncc3)nc2-c2ccco2)c1 = 209 to 211 °C

# melting point of O=C(Nc1nc(-c2ccco2)c(C(=O)C2CCOCC2)s1)c1ccccc1F = 172 to 176 °C

More entries:
# melting point of O=C(Nc1nc(-c2ccco2)c(C(=O)C2CCOCC2)s1)c1cccnc1 = 209 to 212 °C

# melting point of O=C(CCl)Nc1nc(-c2ccco2)c(C(=O)c2ccccn2)s1 = 184 to 185 °C

# melting point of CC(C)(C)C(=O)c1sc(NC(=O)c2ccncc2)nc1-c1ccco1 = 240 to 245 °C

# melting point of COC1CCC(C(=O)c2sc(NC(=O)c3ccc(C#N)cc3)nc2-c2ccco2)CC1 (stereo not drawn) = 105 to 109 °C

----------
The entries below are paired with their reported melting point.

# melting point of COc1cccc(C(=O)Nc2nc(-c3ccco3)c(C(=O)C3CCOCC3)s2)c1OC = 198 to 200 °C

# melting point of Cc1ccc(C(=O)c2sc(NC(=O)c3ccncc3)nc2-c2ccco2)nc1 = 255 to 257 °C

# melting point of O=C(c1ccccn1)c1sc(NC(=O)N2CCOCC2)nc1-c1ccco1 = 144 to 145 °C

# melting point of Cc1nc(C(=O)c2sc(NC(=O)c3ccncc3)nc2-c2ccco2)sc1C = 270 to 272 °C (dec.)

# melting point of CN1CCN(c2ccc(C(=O)c3sc(NC(=O)c4ccncc4)nc3-c3ccco3)cn2)CC1 = 195 to 205 °C

More entries:
# melting point of O=C(Nc1nc(-c2ccco2)c(C(=O)C2CCOCC2)s1)c1ccc(CN2CCC(O)CC2)cc1 = 194 to 195 °C

# melting point of COc1ccc(C(=O)Nc2nc(-c3ccco3)c(C(=O)c3ccccn3)s2)cc1 = 187 to 188 °C

# melting point of COc1cccc(C(=O)Nc2nc(-c3ccco3)c(C(=O)C3CCOCC3)s2)c1 = 198 to 200 °C

# melting point of CC(C)C(=O)c1sc(N)nc1-c1ccco1 = 195 to 199 °C

----------
ENDPOINT: melting point

Worked examples, 3 compounds total:
# melting point of O=C(Nc1nc(-c2ccco2)c(C(=O)c2ccccc2)s1)c1ccnc(CN2CCOCC2)c1 [Compound 52] = 212 to 213 °C

# melting point of O=C(Nc1nc(-c2ccco2)c(C(=O)C2CCOCC2)s1)c1ccncc1 [Compound 360] = 202 to 209 °C

# melting point of O=C(c1ccccn1)c1sc(NC(=O)C2CC2)nc1-c1ccco1 [Compound 99] = 191 to 192 °C

More entries:
# melting point of O=C(CN1CCCC1)Nc1nc(-c2ccco2)c(C(=O)C2CCOCC2)s1 [Compound 441] = 115 to 117 °C

# melting point of O=C(Nc1nc(-c2ccco2)c(C(=O)c2cccs2)s1)c1ccncc1 [Compound 254] = 208 to 210 °C

# melting point of Cc1ccc(C(=O)Nc2nc(-c3ccco3)c(C(=O)c3ccccn3)s2)cn1 [Compound 130] = 210 to 215 °C

----------
The entries below are paired with their reported melting point.

Worked examples, 10 compounds total:
# melting point of O=C(Nc1nc(-c2ccco2)c(C(=O)C2CCOCC2)s1)c1cccc(F)c1F = 154 to 160 °C

# melting point of O=C(CN1CCC2(CC1)OCCO2)Nc1nc(-c2ccco2)c(C(=O)C2CCOCC2)s1 = 186 to 187 °C

# melting point of O=C(Nc1nc(-c2ccco2)c(C(=O)C2CCC2)s1)c1ccncc1 = 227 to 235 °C (dec.)

# melting point of COc1cccc(C(=O)Nc2nc(-c3ccco3)c(C(=O)c3ccccn3)s2)c1 = 165 to 166 °C

# melting point of CCOC(=O)Nc1nc(-c2ccco2)c(C(=O)C2CCOCC2)s1 = 152 to 153 °C

# melting point of O=C(Nc1nc(-c2ccco2)c(C(=O)C2CCOCC2)s1)c1ccc(F)c(F)c1 = 208 to 210 °C

# melting point of COc1cccc(C(=O)c2sc(NC(=O)c3ccncc3)nc2-c2ccco2)n1 = 247 to 250 °C

# melting point of O=C(Nc1nc(-c2ccco2)c(C(=O)c2ccccn2)s1)c1ccncc1 = 218 to 227 °C

# melting point of O=C(Cc1ccccc1)Nc1nc(-c2ccco2)c(C(=O)C2CCOCC2)s1 = 140 to 142 °C

# melting point of O=C(Nc1nc(-c2ccco2)c(C(=O)C2CCOCC2)s1)c1ccc(Cl)nc1 = 233 to 235 °C

More entries:
# melting point of O=C(Nc1nc(-c2ccco2)c(C(=O)c2ccccc2)s1)c1ccnnc1 = 225 to 248 °C

# melting point of COCCCNC(=O)Nc1nc(-c2ccco2)c(C(=O)c2ccccn2)s1 = 169 to 170 °C

# melting point of O=C(CNC12CC3CC(CC(O)(C3)C1)C2)Nc1nc(-c2ccco2)c(C(=O)C2CCOCC2)s1 = 176 to 178 °C

# melting point of O=C(c1ccccn1)c1sc(NC(=O)C2CCC2)nc1-c1ccco1 = 165 to 170 °C

# melting point of O=C(Nc1nc(-c2ccco2)c(C(=O)C2CCOCC2)s1)c1cccc2c1OCCO2 = 188 to 190 °C

# melting point of Cc1cnc(C(=O)c2sc(NC(=O)c3ccncc3)nc2-c2ccco2)s1 = 275 to 277 °C (dec.)

----------
ENDPOINT: melting point

Worked examples, 6 compounds total:
# melting point of COC(C)(C)CN1CCN(CC(=O)Nc2nc(-c3ccco3)c(C(=O)C3CCOCC3)s2)CC1 [Compound 471] = 105 to 107 °C

# melting point of O=C(c1ccccn1)c1sc(NC(=O)C2CCN(Cc3cccnc3)CC2)nc1-c1ccco1 [Compound 105] = 208 to 209 °C

# melting point of O=C(CN1CCCCC1)Nc1nc(-c2ccco2)c(C(=O)C2CCOCC2)s1 [Compound 447] = 146 to 147 °C

# melting point of O=C(CN1CCN(c2ccccn2)CC1)Nc1nc(-c2ccco2)c(C(=O)c2ccccn2)s1 [Compound 185] = 215 to 218 °C

# melting point of COc1ccccc1C(=O)Nc1nc(-c2ccco2)c(C(=O)C2CC2)s1 [Compound 326] = 150 to 154 °C

# melting point of O=C(Nc1nc(-c2ccco2)c(C(=O)c2ccccn2)s1)c1ccn(Cc2ccccc2)c(=O)c1 [Compound 140] = 269 to 270 °C

More entries:
# melting point of Cn1cc(C(=O)Nc2nc(-c3ccco3)c(C(=O)C3CCOCC3)s2)cn1 [Compound 424] = 243 to 247 °C

# melting point of Nc1nc(-c2ccco2)c(C(=O)C2CCC2)s1 [Compound 329] = 125 to 160 °C (dec.)

# melting point of COc1ccc(C(=O)Nc2nc(-c3ccco3)c(C(=O)c3ccccn3)s2)c(OC)n1 [Compound 132] = 201 to 202 °C

# melting point of O=C(Nc1nc(-c2ccco2)c(C(=O)c2ccccn2)s1)c1ccnc(Cl)c1 [Compound 122] = 219 to 225 °C

# melting point of Cc1cc(C(=O)Nc2nc(-c3ccco3)c(C(=O)c3ccccn3)s2)ccn1 [Compound 120] = 187 to 188 °C

# melting point of O=C(Nc1nc(-c2ccco2)c(C(=O)c2cc[nH]c2)s1)c1ccncc1 [Compound 260] = 259 to 260 °C
